Molecular target: Voltage-gated potassium channel, KQT; KCNQ2(Kv7.2)/KCNQ3(Kv7.3) (Homo sapiens) (UniProt O43526+O43525)
Assay: Agonist activity at human Kv7.2/Kv7.3 expressed in HEK293 cells assessed as drug concentration that doubles the conductance at voltage leading to 15% channel activation at holding potential of at -80 mV by whole cell patch clamp electrophysiology assay
Format: cell-based
quantity.kind: log10 of EC2 (log10 of the value in µM)

chemical_structure=Nc1c(NC(=O)OC2CC2)ccc(NCc2ccc(C(F)(F)F)nc2)c1F quantity_kind="log10 of EC2" recorded_number=-0.15
chemical_structure=CCOC(=O)Nc1ccc(NCc2cccc(C(F)(F)F)c2)c(F)c1N quantity_kind="log10 of EC2" recorded_number=-0.85
chemical_structure=Nc1c(NC(=O)OC2CC2)ccc(NCc2ncc(C(F)(F)F)cc2F)c1F quantity_kind="log10 of EC2" recorded_number=0.14
chemical_structure=Nc1c(NC(=O)OC2CC2)cc(F)c(NCc2ccc(C(F)(F)F)cc2F)c1F quantity_kind="log10 of EC2" recorded_number=-0.03
chemical_structure=Nc1c(NC(=O)OC2CC2)ccc(NCc2ccc(C(F)(F)F)cc2F)c1F quantity_kind="log10 of EC2" recorded_number=-0.23
chemical_structure=Nc1c(NC(=O)OC2CC2)ccc(NCc2ccc(C(F)(F)F)cc2)c1F quantity_kind="log10 of EC2" recorded_number=-0.96
chemical_structure=CCOC(=O)Nc1ccc(NCc2ccc(C(F)(F)F)cc2)c(F)c1N quantity_kind="log10 of EC2" recorded_number=-0.59
chemical_structure=Nc1c(NC(=O)OC2CC2)ccc(NCc2ccc(C(F)(F)F)cn2)c1F quantity_kind="log10 of EC2" recorded_number=-0.10
chemical_structure=CCOC(=O)Nc1ccc(NCc2cccc(S(F)(F)(F)(F)F)c2)c(F)c1N quantity_kind="log10 of EC2" recorded_number=-0.44
